Test system: rodent lifetime carcinogenesis bioassay, tumor incidence TD50
test details: carcinogenic potency in animals, long-term in vivo studies, CPDB compilation (AID 1745844)
condition context: rat; strain Sprague-Dawley; females; i.p.; site: mammary gland; lesion: adenocarcinoma, NOS; dosed 26 weeks; study length 80 weeks
readout kind: TD50

Enquiry: Query (compound): "CNNCc1ccc(C(=O)NC(C)C)cc1" ; field requested: TD50
Return: 0.397 mg/kg/day

---

Tested on: rodent lifetime carcinogenesis bioassay, tumor incidence TD50
test details: carcinogenic potency in animals, long-term in vivo studies, CPDB compilation (AID 1745844)
condition context: rat; strain Fischer 344; males; in feed; site: liver; lesion: several types; types named in the paper; dosed 70 weeks; study length 70 weeks
readout kind: TD50

Enquiry: Lab request: please report TD50 under test system rodent lifetime carcinogenesis bioassay, tumor incidence TD50 for "O=[N+]([O-])OCC(CO[N+](=O)[O-])O[N+](=O)[O-]"
Return: 113 mg/kg/day

---

Tested on: rodent lifetime carcinogenesis bioassay, tumor incidence TD50
test details: carcinogenic potency in animals, long-term in vivo studies, CPDB compilation (AID 1745844)
condition context: rat; strain Fischer 344; females; inhaled; site: mammary gland; lesion: fibroadenoma; dosed 103 weeks; study length 105 weeks
readout kind: TD50 (mg/kg/day)
Give the quantity in mg/kg/day, number only.

Enquiry: What value of measured TD50 is listed for "O=C(CCl)c1ccccc1" ?
Return: 0.211

---

Test system: rodent lifetime carcinogenesis bioassay, tumor incidence TD50
test details: carcinogenic potency in animals, long-term in vivo studies, CPDB compilation (AID 1745844)
condition context: rat; strain Fischer 344; females; by gavage; site: thyroid gland; lesion: follicular-cell carcinoma; dosed 104 weeks; study length 105 weeks
readout kind: TD50 (mg/kg/day)
Output spec: scalar in mg/kg/day, unitless text.

Enquiry: What does the record list as TD50 for CCCC(Cl)CCCC(Cl)CCC(Cl)CCC(Cl)CCC(Cl)CCCC(Cl)CCC (stereo unspecified) ?
Return: 4060

---

Tested on: rodent lifetime carcinogenesis bioassay, tumor incidence TD50
test details: carcinogenic potency in animals, long-term in vivo studies, CPDB compilation (AID 1745844)
condition context: rat; strain Fischer 344; females; in feed; site: urinary bladder; lesion: sarcoma; dosed 27 weeks; study length 104 weeks
readout kind: TD50

Enquiry: Tell me reported TD50 for "COc1ccccc1[N+](=O)[O-]" , tested with rodent lifetime carcinogenesis bioassay, tumor incidence TD50.
Return: 192 mg/kg/day

---

Test system: rodent lifetime carcinogenesis bioassay, tumor incidence TD50
test details: carcinogenic potency in animals, long-term in vivo studies, CPDB compilation (AID 1745844)
condition context: rat; strain Sprague-Dawley; females; in feed; site: liver; lesion: cystadenoma; dosed 46 weeks; study length 64 weeks
readout kind: TD50

Enquiry: Observed TD50 on rodent lifetime carcinogenesis bioassay, tumor incidence TD50 for "O=CNNc1nc(-c2ccc([N+](=O)[O-])o2)cs1" , please.
Return: 43.9 mg/kg/day

---

System: rodent lifetime carcinogenesis bioassay, tumor incidence TD50
test details: carcinogenic potency in animals, long-term in vivo studies, CPDB compilation (AID 1745844)
condition context: mouse; strain B6C3F1; females; in feed; site: lung; lesion: alveolar/bronchiolar adenoma; dosed 103 weeks; study length 105 weeks
readout kind: TD50

Enquiry: Reported TD50 for "N=C1C=CC(=C(c2ccc(N)cc2)c2ccc(N)cc2)C=C1" : what is it?
Return: 326 mg/kg/day
